Measured viability at 1 µM, listed per entry.
system: iCell cardiomyocytes (human iPSC-derived cardiomyocytes); assay: High-content imaging of cytotoxicity and mitochondrial integrity in iPSC-CMs; assay type: cell-based; conditions: Homo sapiens, Cardiomyocyte, 1.5 h, 1.00 µM; 0.00 µM = 100.00; read-out: cm.tc.90min
Counter-ions that a name gives are not always drawn.

compound	viability at 1 µM (%)
Clc1cccc(-c2cccc(Cl)c2)c1	101
O=S(=O)(O)Oc1ccc(-c2ccc(Cl)cc2)cc1 [4'-yl PCB 3 sulfate]	102
Oc1cccc(-c2ccc(Cl)cc2)c1	103
O=S(=O)(O)Oc1cc(Cl)ccc1-c1ccccc1 [2-yl PCB 3 sulfate]	105
O=S(=O)(O)Oc1ccc(-c2cccc(Cl)c2)cc1Cl [4-yl PCB 11 sulfate]	101
Oc1ccccc1-c1ccc(Cl)cc1	101

====

Measured activity at 10 µM, listed per entry.
tested on: iCell endothelial cells (human iPSC-derived ECs); assay: High-content imaging cytotoxicity in iCell endothelial cells, 24 h; type: cell-based; settings: Homo sapiens, Endothelial cell, iPSC-EC, 24 hr, 10.00 µM, 0.00 µM control = 100.00, read-out: endo.mitoint.24hr
Structures can show the parent of a compound that is named as a salt.

molecule	target	activity at 10 µM (%)
Oc1cc(Cl)cc(-c2cccc(Cl)c2)c1	iCell endothelial cells (human iPSC-derived ECs)	107
Oc1ccc(-c2ccc(Cl)cc2)cc1	iCell endothelial cells (human iPSC-derived ECs)	119
COc1ccc(-c2ccc(Cl)cc2)cc1	iCell endothelial cells (human iPSC-derived ECs)	107
O=S(=O)(O)Oc1ccc(-c2ccc(Cl)cc2)cc1 [4'-yl PCB 3 sulfate]	iCell endothelial cells (human iPSC-derived ECs)	98

====

system: iPSC-CMs, iPSC-ECs and HUVECs phenotypes; assay: ToxPi 2.0 integration of POD values and physicochemical descriptors; set-up: species or system human; conditions: ToxPi-scaled (0-1) score; iPSC cardiomyocytes, 24 h
Structures can show the parent of a compound that is named as a salt.
Measured cm.bpm.24hrs, listed per entry.
property: cm.bpm.24hrs

compound	target	test_result
Clc1ccc(Cl)c(-c2c(Cl)ccc(Cl)c2Cl)c1Cl [(+)-PCB 136, 2,2′,3,3′,6,6′-hexachlorobiphenyl]	iPSC-CMs, iPSC-ECs and HUVECs phenotypes	0.7213
COc1ccc(-c2ccc(Cl)cc2)cc1 [4'-OMe-PCB 3, 4′-methoxy-4-chlorobiphenyl]	iPSC-CMs, iPSC-ECs and HUVECs phenotypes	0.4274
O=S(=O)(O)Oc1cccc(-c2ccc(Cl)cc2)c1 [3'-PCB 3 sulfate]	iPSC-CMs, iPSC-ECs and HUVECs phenotypes	0
Clc1ccc(Cl)c(-c2c(Cl)ccc(Cl)c2Cl)c1Cl [(-)-PCB 136, 2,2′,3,3′,6,6′-hexachlorobiphenyl]	iPSC-CMs, iPSC-ECs and HUVECs phenotypes	0.3802
Oc1ccc(-c2cccc(Cl)c2)cc1Cl [4-OH-PCB 11]	iPSC-CMs, iPSC-ECs and HUVECs phenotypes	0.3605
Clc1ccc(-c2cc(Cl)c(Cl)c(Cl)c2)cc1Cl [PCB 126, 3,3′,4,4′,5-pentachlorobiphenyl]	iPSC-CMs, iPSC-ECs and HUVECs phenotypes	0.6773
Clc1cccc(-c2cccc(Cl)c2)c1 [PCB 11, 3,3′-Dichlorobiphenyl]	iPSC-CMs, iPSC-ECs and HUVECs phenotypes	0.1537
